Overview of recorded zone of inhibition at 100 µg/mL for various compounds
System: Escherichia coli
Assay: Antimicrobial activity against at Escherichia coli at 100 ug/ml by cup-plate method
Assay type: functional
Details: read-out: IZ

{"compound": "O=C1c2ccccc2-c2noc(-c3ccc(Cl)cc3)c21", "assayed-system": "Escherichia coli", "measure-unit": "mm", "zone of inhibition at 100 µg/mL": 16}
{"compound": "COc1ccc(-c2onc3c2C(=O)c2ccccc2-3)cc1OC", "assayed-system": "Escherichia coli", "measure-unit": "mm", "zone of inhibition at 100 µg/mL": 24.5}
{"compound": "CN(C)c1ccc(-c2onc3c2C(=O)c2ccccc2-3)cc1", "assayed-system": "Escherichia coli", "measure-unit": "mm", "zone of inhibition at 100 µg/mL": 17.2}
{"compound": "O=C1c2ccccc2-c2noc(-c3ccccc3[N+](=O)[O-])c21", "assayed-system": "Escherichia coli", "measure-unit": "mm", "zone of inhibition at 100 µg/mL": 19.8}
{"compound": "O=C1c2ccccc2-c2noc(-c3ccc(O)cc3)c21", "assayed-system": "Escherichia coli", "measure-unit": "mm", "zone of inhibition at 100 µg/mL": 13.8}
{"compound": "Cc1ccc(-c2onc3c2C(=O)c2ccccc2-3)cc1", "assayed-system": "Escherichia coli", "measure-unit": "mm", "zone of inhibition at 100 µg/mL": 25.3}
{"compound": "O=C1c2ccccc2-c2noc(-c3cccc([N+](=O)[O-])c3)c21", "assayed-system": "Escherichia coli", "measure-unit": "mm", "zone of inhibition at 100 µg/mL": 17}
{"compound": "CC1(C)S[C@@H]2[C@H](NC(=O)[C@H](N)c3ccccc3)C(=O)N2[C@H]1C(=O)O [AMPICILLIN]", "assayed-system": "Escherichia coli", "measure-unit": "mm", "zone of inhibition at 100 µg/mL": 32.7}
{"compound": "COc1cccc(-c2onc3c2C(=O)c2ccccc2-3)c1O", "assayed-system": "Escherichia coli", "measure-unit": "mm", "zone of inhibition at 100 µg/mL": 21}
{"compound": "COc1ccc(-c2onc3c2C(=O)c2ccccc2-3)cc1", "assayed-system": "Escherichia coli", "measure-unit": "mm", "zone of inhibition at 100 µg/mL": 20.2}
{"compound": "O=C1c2ccccc2-c2noc(-c3ccc([N+](=O)[O-])cc3)c21", "assayed-system": "Escherichia coli", "measure-unit": "mm", "zone of inhibition at 100 µg/mL": 18.5}
{"compound": "O=C1c2ccccc2-c2noc(-c3ccccc3)c21", "assayed-system": "Escherichia coli", "measure-unit": "mm", "zone of inhibition at 100 µg/mL": 30.9}
{"compound": "COc1cc(-c2onc3c2C(=O)c2ccccc2-3)cc(OC)c1OC", "assayed-system": "Escherichia coli", "measure-unit": "mm", "zone of inhibition at 100 µg/mL": 27.8}

* * *

Tested on: Rattus norvegicus
Test: Anti-inflammatory activity in Rattus norvegicus Wistar albino (rat) assessed as protection against carrageenan-induced paw edema at 50 mg/kg after 30 min
Type: functional

{"smiles-input": "O=C1c2ccccc2-c2noc(-c3ccccc3[N+](=O)[O-])c21", "Activity [%]": 7.22}
{"smiles-input": "O=C1c2ccccc2-c2noc(-c3ccccc3)c21", "Activity [%]": 21.44}
{"smiles-input": "O=C1c2ccccc2-c2noc(-c3ccc(O)cc3)c21", "Activity [%]": 31.16}
{"smiles-input": "O=C1c2ccccc2-c2noc(-c3cccc([N+](=O)[O-])c3)c21", "Activity [%]": 2.02}
{"smiles-input": "COc1cccc(-c2onc3c2C(=O)c2ccccc2-3)c1O", "Activity [%]": 25.44}
{"smiles-input": "Cc1ccc(-c2onc3c2C(=O)c2ccccc2-3)cc1", "Activity [%]": 35.29}
{"smiles-input": "CN(C)c1ccc(-c2onc3c2C(=O)c2ccccc2-3)cc1", "Activity [%]": 7.11}

* * *

Tested on: Mus musculus
Assay: Analgesic activity in Mus musculus Swiss albino (mouse) assessed as increase in reaction time of paw licking or jump response at 50 mg/kg, po after 60 min by hot plate method
Format: functional
Binning scheme for Activity: bucket 1 = under 8%, bucket 2 = from 8% up to 20%, bucket 3 = 20% and over

{"smiles-input": "COc1ccc(-c2onc3c2C(=O)c2ccccc2-3)cc1OC", "class": "bucket 2"}
{"smiles-input": "Cc1ccc(-c2onc3c2C(=O)c2ccccc2-3)cc1", "class": "bucket 3"}
{"smiles-input": "COc1ccc(-c2onc3c2C(=O)c2ccccc2-3)cc1", "class": "bucket 1"}
{"smiles-input": "O=C1c2ccccc2-c2noc(-c3ccc(O)cc3)c21", "class": "bucket 3"}
{"smiles-input": "O=C1c2ccccc2-c2noc(-c3ccccc3[N+](=O)[O-])c21", "class": "bucket 1"}
{"smiles-input": "CN(C)c1ccc(-c2onc3c2C(=O)c2ccccc2-3)cc1", "class": "bucket 1"}
{"smiles-input": "O=C1c2ccccc2-c2noc(-c3cccc([N+](=O)[O-])c3)c21", "class": "bucket 2"}
{"smiles-input": "COc1cccc(-c2onc3c2C(=O)c2ccccc2-3)c1O", "class": "bucket 2"}
{"smiles-input": "O=C1c2ccccc2-c2noc(-c3ccccc3)c21", "class": "bucket 2"}

* * *

Tested on: Escherichia coli
Experiment: Antimicrobial activity against at Escherichia coli at 50 ug/ml by cup-plate method
Format: functional
Conditions: read-out: IZ
property-measured: zone of inhibition at 50 µg/mL (mm)

{"smiles-input": "O=C1c2ccccc2-c2noc(-c3ccc([N+](=O)[O-])cc3)c21", "measure-unit": "mm", "data-value": 13}
{"smiles-input": "O=C1c2ccccc2-c2noc(-c3ccccc3[N+](=O)[O-])c21", "measure-unit": "mm", "data-value": 12.8}
{"smiles-input": "CN(C)c1ccc(-c2onc3c2C(=O)c2ccccc2-3)cc1", "measure-unit": "mm", "data-value": 12}
